# SYSTEM: HPK1 protein (Homo sapiens)
# Construct: Frozen human PBMC were purchased from Shanghai OribioTech; host or cells: human PBMC
# Sequence (Q92918 whole entry): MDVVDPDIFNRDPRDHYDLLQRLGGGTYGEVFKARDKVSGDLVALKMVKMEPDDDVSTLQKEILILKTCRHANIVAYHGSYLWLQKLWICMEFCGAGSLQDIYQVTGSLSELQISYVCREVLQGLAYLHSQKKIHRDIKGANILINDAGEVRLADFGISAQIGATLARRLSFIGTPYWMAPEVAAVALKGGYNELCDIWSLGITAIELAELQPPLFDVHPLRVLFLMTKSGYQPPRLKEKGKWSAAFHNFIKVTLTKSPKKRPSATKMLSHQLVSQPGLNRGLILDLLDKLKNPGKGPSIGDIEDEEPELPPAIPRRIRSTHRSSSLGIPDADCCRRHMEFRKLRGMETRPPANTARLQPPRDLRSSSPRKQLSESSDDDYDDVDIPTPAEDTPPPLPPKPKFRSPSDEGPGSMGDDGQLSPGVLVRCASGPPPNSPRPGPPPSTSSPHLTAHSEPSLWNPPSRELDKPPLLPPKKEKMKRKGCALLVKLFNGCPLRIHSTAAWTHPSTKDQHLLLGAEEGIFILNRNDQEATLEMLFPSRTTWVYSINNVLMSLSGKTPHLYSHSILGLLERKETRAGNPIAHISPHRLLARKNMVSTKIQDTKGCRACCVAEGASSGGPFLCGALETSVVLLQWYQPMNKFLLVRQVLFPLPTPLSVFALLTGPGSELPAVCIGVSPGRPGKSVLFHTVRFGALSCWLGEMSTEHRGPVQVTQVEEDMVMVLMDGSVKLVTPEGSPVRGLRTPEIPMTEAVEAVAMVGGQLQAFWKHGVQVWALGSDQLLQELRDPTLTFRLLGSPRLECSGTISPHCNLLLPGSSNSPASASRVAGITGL
# PROTOCOL DETAILS: HPK1 protein degradation in human PBMC (western blot)
# Type: cell-based
# CONDITION: 18 h incubation
Catalogue of molecules with associated Dmax
# output: bare number, implied unit %

Below, each entry is followed by its recorded Dmax result.
Input line: What does the data say about its Dmax? Entry: CCc1c[nH]c2ncc(-c3cccc(N4CCN(CCOC5CCN(c6cc7c(cc6F)C(=O)N(C6CCC(=O)NC6=O)C7=O)CC5)CC4=O)c3)c(Cl)c12 (stereo not drawn)
Output line: 86

Input line: What does the data say about its Dmax? Entry: CCc1c[nH]c2ncc(-c3cccc(N4CCN(CCC(=O)N5CCN(c6cc7c(cc6F)C(=O)N(C6CCC(=O)NC6=O)C7=O)CC5)CC4=O)c3)c(Cl)c12 (stereo not drawn)
Output line: 61

Input line: What does the data say about its Dmax? Entry: O=C1CCN(c2cccc3cc(N4CCC(OCCN5CCN(c6cccc(-c7cnc8[nH]cc(C9CC9)c8c7Cl)n6)C(=O)C5)CC4)ccc23)C(=O)N1
Output line: 30

Input line: What does the data say about its Dmax? Entry: O=C1CCC(N2C(=O)c3cc(F)c(N4CCC(CCN5CCN(c6cccc(-c7cnc8[nH]cc(CC(F)F)c8c7Cl)c6)C(=O)C5)CC4)cc3C2=O)C(=O)N1 (stereo not drawn)
Output line: 55

Input line: What does the data say about its Dmax? Entry: CC(OC1CCN(c2cc3c(cc2F)C(=O)N(C2CCC(=O)NC2=O)C3=O)CC1)C(=O)N1CCN(c2cccc(-c3cnc4[nH]cc(C5CC5)c4c3Cl)c2)C(=O)C1 (stereo not drawn)
Output line: 57

Others:
Input line: What does the data say about its Dmax? Entry: O=C1CCN(c2cccc3cc(N4CCN(CCCN5CCN(c6cccc(-c7cnc8[nH]cc(C9CC9)c8c7Cl)n6)C(=O)C5)CC4)ccc23)C(=O)N1
Output line: 74

Input line: What does the data say about its Dmax? Entry: O=C1CCC(N2Cc3cc(C4=CCN(CCCN5CCN(c6cccc(-c7cnc8[nH]cc(C9CC9)c8c7Cl)c6)C(=O)C5)CC4)ccc3C2=O)C(=O)N1 (stereo not drawn)
Output line: 98

Input line: What does the data say about its Dmax? Entry: CCc1c[nH]c2ncc(-c3cccc(N4CCN(CCCN5CCN(c6cc7c(cc6F)C(=O)N(C6CCC(=O)NC6=O)C7=O)CC5)CC4=O)c3)c(Cl)c12 (stereo not drawn)
Output line: 96

Input line: What does the data say about its Dmax? Entry: O=C1CCC(N2Cc3cc(N4CCC(OCC(=O)N5CCN(c6cccc(-c7cnc8[nH]cc(C9CC9)c8c7Cl)c6)C(=O)C5)CC4)ccc3C2=O)C(=O)N1 (stereo not drawn)
Output line: 85

Input line: What does the data say about its Dmax? Entry: CCc1c[nH]c2ncc(-c3cccc(N4CCN(CCCN5CCC(c6ccc7c(N8CCC(=O)NC8=O)cccc7c6)CC5)CC4=O)c3)c(Cl)c12
Output line: 98

Input line: What does the data say about its Dmax? Entry: CCc1c[nH]c2ncc(-c3cccc(N4CCN(CCCN5CC=C(c6ccc7c(N8CCC(=O)NC8=O)nn(C)c7c6)CC5)CC4=O)c3)c(Cl)c12
Output line: 86

Input line: What does the data say about its Dmax? Entry: O=C1CCC(N2C(=O)c3cc(F)c(N4CCN(CCCN5CCN(c6cccc(-c7cnc8[nH]cc(C9CC9)c8c7Cl)c6)C(=O)C5)CC4)cc3C2=O)C(=O)N1 (stereo not drawn)
Output line: 94
